All figures here come from patent US6939946B2.

System: C. albicans
applied_conditions: in vitro
Where a name gives a salt, the structure may show the parent alone. Bridge positions count the residues as written; N and C are the ends. Square brackets hold non-standard residues; d marks the D form. Peptide text beside a SMILES is read from it. * marks the point of attachment. ξ: configuration not given here. pTerphenylCO(4''-OnC5H11) = CCCCCOc1ccc(-c2ccc(-c3ccc(C(=O)*)cc3)cc2)cc1; Pro(3S-OH,4S-Me) = C[C@H]1CN[C@H](C(=O)O)[C@H]1O; hTyr(3R-OH) = N[C@H](C(=O)O)[C@H](O)Cc1ccc(O)cc1; Hyp = O=C(O)[C@@H]1C[C@@H](O)CN1; Thr(3ξ) = CC(O)[C@H](N)C(=O)O; dOrn = NCCC[C@@H](N)C(=O)O; dDap = NC[C@@H](N)C(=O)O; Dap = NC[C@H](N)C(=O)O
measured_quantity: Minimal Inhibitory Concentration MIC C. albicans

compound | recorded_measurement
CCCCCOc1ccc(-c2ccc(-c3ccc(C(=O)N[C@H]4CCN(CC)NC(=O)[C@@H]5[C@@H](O)[C@@H](C)CN5C(=O)[C@H](C(C)O)NC(=O)[C@H]([C@H](O)Cc5ccc(O)cc5)NC(=O)[C@@H]5C[C@@H](O)CN5C(=O)[C@H](C(C)O)NC4=O)cc3)cc2)cc1 (some centres unmarked) [E2-11(b)] | 0.001 µg/mL

Asked: Give the reported value of Minimal Inhibitory Concentration MIC C. albicans for this record: CCCCCOc1ccc(-c2ccc(-c3ccc(C(=O)N[C@H]4CCN(CCC)NC(=O)[C@@H]5[C@@H](O)[C@@H](C)CN5C(=O)[C@H](C(C)O)NC(=O)[C@H]([C@H](O)Cc5ccc(O)cc5)NC(=O)[C@@H]5C[C@@H](O)CN5C(=O)[C@H](C(C)O)NC4=O)cc3)cc2)cc1 (some centres unmarked) [E2-11(c)]
Given back: 0.312 µg/mL

Asked: Give the reported value of Minimal Inhibitory Concentration MIC C. albicans for this record: `CCCCCOc1ccc(-c2ccc(-c3ccc(C(=O)N[C@@H]4CS(=O)(=O)CCNC(=O)[C@@H]5[C@H](O)[C@@H](C)CN5C(=O)[C@H]([C@@H](C)O)NC(=O)[C@H]([C@H](O)Cc5ccc(O)cc5)NC(=O)[C@@H]5C[C@@H](O)CN5C(=O)[C@H]([C@@H](C)O)NC4=O)cc3)cc2)cc1`
Given back: >20 µg/mL

Asked: Give the reported value of Minimal Inhibitory Concentration MIC C. albicans for this record: CCCCCOc1ccc(-c2ccc(-c3ccc(C(=O)NC[C@H]4NC(=O)CNC(=O)[C@@H]5[C@@H](O)[C@@H](C)CN5C(=O)[C@H](C(C)O)NC(=O)[C@H]([C@H](O)Cc5ccc(O)cc5)NC(=O)[C@@H]5C[C@@H](O)CN5C(=O)[C@H](C(C)O)NC4=O)cc3)cc2)cc1 (stereo partly drawn) [E7-14(a)] (cyclo(G[dDap](pTerphenylCO(4''-OnC5H11))[Thr(3ξ)][Hyp][hTyr(3R-OH)][Thr(3ξ)][Pro(3S-OH,4S-Me)]))
Given back: 0.312 µg/mL

Asked: Give the reported value of Minimal Inhibitory Concentration MIC C. albicans for this record: C[C@@H]1[C@H](O)[C@@H](C)/C=C/C=C/C=C/C=C/C=C/C=C/C=C/[C@H](O[C@@H]2O[C@H](C)[C@@H](O)[C@H](N)[C@@H]2O)C[C@@H]2O[C@](O)(C[C@@H](O)C[C@@H](O)[C@H](O)CC[C@@H](O)C[C@@H](O)CC(=O)O[C@H]1C)C[C@H](O)[C@H]2C(=O)O [Ampho B, Amphotericin B, reference compound]
Given back: 0.078 µg/mL

Asked: Give the reported value of Minimal Inhibitory Concentration MIC C. albicans for this record: CCCCCOc1ccc(-c2ccc(-c3ccc(C(=O)NC[C@@H]4NC(=O)CNC(=O)[C@@H]5[C@@H](O)[C@@H](C)CN5C(=O)[C@H](C(C)O)NC(=O)[C@H]([C@H](O)Cc5ccc(O)cc5)NC(=O)[C@@H]5C[C@@H](O)CN5C(=O)[C@H](C(C)O)NC4=O)cc3)cc2)cc1 (stereo partly drawn) [E7-14(b)] (cyclo([Dap](pTerphenylCO(4''-OnC5H11))[Thr(3ξ)][Hyp][hTyr(3R-OH)][Thr(3ξ)][Pro(3S-OH,4S-Me)]G))
Given back: 0.156 µg/mL

Asked: Give the reported value of Minimal Inhibitory Concentration MIC C. albicans for this record: CCCCCOc1ccc(-c2ccc(-c3ccc(C(=O)N[C@H]4CCN(C)NC(=O)[C@@H]5[C@@H](O)[C@@H](C)CN5C(=O)[C@H](C(C)O)NC(=O)[C@H]([C@H](O)Cc5ccc(O)cc5)NC(=O)[C@@H]5C[C@@H](O)CN5C(=O)[C@H](C(C)O)NC4=O)cc3)cc2)cc1 (single isomer, unassigned) [E2-11(a) TFA salt]
Given back: 0.005 µg/mL

Asked: Give the reported value of Minimal Inhibitory Concentration MIC C. albicans for this record: CCCCCOc1ccc(-c2ccc(-c3ccc(C(=O)N[C@@H]4CCCNC(=O)[C@@H]5[C@@H](O)[C@@H](C)CN5C(=O)[C@H](C(C)O)NC(=O)[C@H]([C@H](O)Cc5ccc(O)cc5)NC(=O)[C@@H]5C[C@@H](O)CN5C(=O)[C@H](C(C)O)NC4=O)cc3)cc2)cc1 (stereo partly drawn) [Compound E1-4] ({pTerphenylCO(4''-OnC5H11)}-[dOrn][Thr(3ξ)][Hyp][hTyr(3R-OH)][Thr(3ξ)][Pro(3S-OH,4S-Me)]; lactam 1-C)
Given back: 1.25 µg/mL

Asked: Give the reported value of Minimal Inhibitory Concentration MIC C. albicans for this record: CCCCCOc1ccc(-c2ccc(-c3ccc(C(=O)N[C@H]4CCCCNC(=O)[C@@H]5[C@@H](O)[C@@H](C)CN5C(=O)[C@H](C(C)O)NC(=O)[C@H]([C@H](O)Cc5ccc(O)cc5)NC(=O)[C@@H]5C[C@@H](O)CN5C(=O)[C@H](C(C)O)NC4=O)cc3)cc2)cc1 (stereo partly drawn) [Compound E1-5] ({pTerphenylCO(4''-OnC5H11)}-K[Thr(3ξ)][Hyp][hTyr(3R-OH)][Thr(3ξ)][Pro(3S-OH,4S-Me)]; lactam 1-C)
Given back: 0.02 µg/mL

Asked: Give the reported value of Minimal Inhibitory Concentration MIC C. albicans for this record: CCCCCOc1ccc(-c2ccc(-c3ccc(C(=O)N[C@@H]4CNC(=O)CNC(=O)[C@@H]5[C@@H](O)[C@@H](C)CN5C(=O)[C@H](C(C)O)NC(=O)[C@H]([C@H](O)Cc5ccc(O)cc5)NC(=O)[C@@H]5C[C@@H](O)CN5C(=O)[C@H](C(C)O)NC4=O)cc3)cc2)cc1 (stereo partly drawn) [E7-6(a)] ({pTerphenylCO(4''-OnC5H11)}-[dDap][Thr(3ξ)][Hyp][hTyr(3R-OH)][Thr(3ξ)][Pro(3S-OH,4S-Me)]G; lactam 1-C)
Given back: >20 µg/mL

Asked: Give the reported value of Minimal Inhibitory Concentration MIC C. albicans for this record: CCCCCOc1ccc(-c2ccc(-c3ccc(C(=O)N[C@H]4CNC(=N)NC(=O)[C@@H]5[C@@H](O)[C@@H](C)CN5C(=O)[C@H](C(C)O)NC(=O)[C@H]([C@H](O)Cc5ccc(O)cc5)NC(=O)[C@@H]5C[C@@H](O)CN5C(=O)[C@H](C(C)O)NC4=O)cc3)cc2)cc1 (some centres unmarked)
Given back: 0.078 µg/mL
